B1: glmS ribozyme (parent)
chain: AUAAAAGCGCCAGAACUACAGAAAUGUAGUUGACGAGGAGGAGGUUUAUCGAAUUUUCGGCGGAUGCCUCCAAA

# Variants of: B1
# assay_remarks: self-cleavage kobs at 160 uM GlcN6P; higher = faster cleavage; RNA array
# measurement_conditions: with glucosamine-6-phosphate
Variants at the floor of the assay were thinned out.
metric: self-cleavage kobs at 160 uM GlcN6P

residues: AUAAACGCGCCAGAACUACAGAAAUGUAGUUGACGAGGAGGAGGUUUAUCGAAUUUUCGGCGAAUGCCUCCAAA [A6C G63A]
self-cleavage kobs at 160 uM GlcN6P: < 1e-05 s⁻¹

Report measured self-cleavage kobs at 160 uM GlcN6P; entry is AUAAAAGCGCCAGAAGUACAGAAAUGUACUUGUCGAGGAGGAGGUUUCUCGAAUUUUCGGCGGAUGCCUCCAAA [C16G G29C A33U A48C] < 1e-05 s⁻¹

Please supply the value of reported self-cleavage kobs at 160 uM GlcN6P for the item AUAAAAGCGCCAGAACUACAGAAAUGUAGAUGACGAGGAGGAGGUUUAUCGAAUUUUCGGCGGAUGUCUCCAAA [U30A C67U] 0.000105 s⁻¹

Please report the measured self-cleavage kobs at 160 uM GlcN6P for AUAAAAGCCCGAGAACUACAGAAAUGUAGUUGACGAGGAGGAGGUUUAUCGAAUUUUCGGGGUAUGCCUCCAAA [G9C C11G C61G G63U] < 1e-05 s⁻¹

Given the variant AUAAAAGCGCCAGGACUACAGAAAUGUAGUUGACGAGGCGGAGGUUUAUCGAAUUUUCGGCGGAUGCCUCCAAA [A14G A39C] , write its reported self-cleavage kobs at 160 uM GlcN6P. 0.000699 s⁻¹

Provide self-cleavage kobs at 160 uM GlcN6P value for the following variant: AUAAAAGCGCCAGAACUACAGAAAUGUAGUGGGCGAGGAGGAGGUUUAUCGAAUUCUCGGCGGAUGCCUCCAAA [U31G A33G U56C] < 1e-05 s⁻¹

Identify measured self-cleavage kobs at 160 uM GlcN6P corresponding to AUAAAAGCGCCAGUACUACAGAAAUGUAGUUAACGAGGAGGAGGUUUAUCGAAUUUUCGGCGGAUGCCUCCAAA [A14U G32A] 0.00046 s⁻¹

Provide measured self-cleavage kobs at 160 uM GlcN6P value, entry: AUAAACGCGCAAGAACUACAGAAAUGUAGUUGACGAGGAGGAGGUUUAUCGAAUUUUCGGCGGAUGCCUCCAAA [A6C C11A] < 1e-05 s⁻¹

Let me know recorded self-cleavage kobs at 160 uM GlcN6P for AUAAAAGCCCCAGAACUACAGAAAUGUAGUUGACGAGGAGGAGGUUUAUCGAAUUUUCCGCGGAUGCCUCCAAA [G9C G59C] , thanks. < 1e-05 s⁻¹

Tell me measured self-cleavage kobs at 160 uM GlcN6P for AUAAAAGCCCCAGAACUACAGAAAUGUAGUUGACGAGGAGGAGGUUUAUCGAAUUUUCGGCGGAUGCCUCUAAA [G9C C71U] please. < 1e-05 s⁻¹

Supply recorded self-cleavage kobs at 160 uM GlcN6P for AUAAAAGCGCCAGUACUACAGAAAUGUAGCUGACGAGGAGGACGUUUAUCGAAUUUUCGGCGGAUCCCUCCAAA [A14U U30C G43C G66C] here. < 1e-05 s⁻¹

Consider the variant AUAAAAGCGCCAGAAUUACAGAAAUGUAGUUGACGAGGAGGAGGUUUAUCGAAUUCUCGGCGGAUGCCUCCAAA [C16U U56C] . State its measured self-cleavage kobs at 160 uM GlcN6P. 0.00024 s⁻¹

Identify measured self-cleavage kobs at 160 uM GlcN6P associated with AUAAAAGCGCCUGAACUACAGAAAUGUAGUUGACGAGGAGCAGGUUUAUCGUAUUUUCAUCGGAUGCCUCCAAA [A12U G41C A52U G59A G60U] < 1e-05 s⁻¹

Read the entry AUAAAAGCGCCAGAACUACAGAAAUGUAGUUGACGAGGAGGAGGUUUAUCGAACUUUCGGCGGAGGCCUCCAAA [U54C U65G] and write its reported self-cleavage kobs at 160 uM GlcN6P. 0.000122 s⁻¹

The measurements presented in this section are drawn from the supplement of paper PMC7125110.
